Values were extracted from paper PMC4994030.

molecular target: T1, HER2-ECD (human epidermal growth factor receptor 2, extracellular domain) (Homo sapiens, UniProt P04626); experiment: ELISA; conditions: one partner purified
T1 construct: also called HER-ECD
readout: binding result

[[record]]
binder = "GH2-101 scFv (scFv, V domains shown, source: E. coli ER2738, secreted, in filtered culture supernatant) VH: EVQLVESGGGLVQPGGSLRLSCAASGFTINSYGIHWVRQAPGKGLEWVASIGPYWGYTSYADSVKGRFTISADTSKNTAYLQMNSLRAEDTAVYYCARFYIWFDGLMDYWGQGTLVTVSS VL: DIQMAQSPSSLSASVGDRVTITCRASQDVSNGVAWYQQKPGKAPKLLIYGTTSLYSGVPSRFSGSGSGTDFTLTISSLQPEDFATYYCQQYYSWPLTFGQGTKVEIK"
experimentalresult = "binds"

[[record]]
binder = "GH2-92 scFv (scFv, V domains shown, source: E. coli ER2738, secreted, in filtered culture supernatant) VH: EVQLVESGGGLVQPGGSLRLSCAASGFTIGNWGIHWVRQAPGKGLEWVASIGPFWGYTFYADSVKGRFTISADTSKNTAYLQMNSLRAEDTAVYYCARFGNHYDGIMDYWGQGTLVTVSS VL: DIQMTQSPSSLSASVGDRVTITCRASQDVNDGVAWYQQKPGKAPKLLIFGSPYLFSGVPSRFSGSGSGTDFTLTISSLQPEDFATYYCQQYFSWPITFGQGTQVGIK"
experimentalresult = "binds"

[[record]]
binder = "GH2-26 scFv (scFv, V domains shown, source: E. coli ER2738, secreted, in filtered culture supernatant) VH: EVQLVESGGGLVQPGGSLRLSCAASGFTISDYGIHWVRQAPGKGLEWVAFIGPYWGYTYYADSVKGRFTISADTSKNTAYLQMNSLRAEDTAVYYCARFYFFGDGLMDYWGQGTLVTVSS VL: DIQMTQSPSSLSASVGDRVTITCRASQDVSSGVAWYQQKPGKAPKLLIYGTSSLYSGVPSRFSGSGSGTDFTLTISSLQPEDFATYYCQQYFNWPITFGQGTKVEIK"
experimentalresult = "binds"

